assay: Cmax in po dosed mouse; format: ADME, organism-based; set-up: route oral; conditions: in vivo
readout-name: Cmax (nM)
Field: numeric (nM). Do not append units.

// query What does the record list as Cmax for NCC(=O)N1CCn2c(nc(-c3ccccc3)c2Nc2ccc3c(c2)OCO3)C1 ?
// result 320

====

Entries and their measured permeability follow.
details: pampa
Description: Permeability of the compound assessed as amount of compound absorbed by PAMPA method
Field: numeric (%). Do not append units.

Answered examples (3):
> print(dat)
                              smiles.string  observed.result
1  CC(C)(N)C(=O)N1CCn2c(nc(-c3ccc(F)cc3)c2Nc2ccc(F)c(F)c2)C1               86
2  CC(C)(N)C(=O)N1CCn2c(nc(-c3ccc(F)cc3)c2Nc2ccc(Cl)cc2)C1               89
3  CC(C)(N)C(=O)N1CCn2c(nc(-c3ccc(F)cc3)c2Nc2ccc(F)cc2)C1               81

// query What does the record list as permeability for NCC(=O)N1CCn2c(nc(-c3ccc(F)cc3)c2Nc2ccc(F)cc2)C1 ?
// result 52

// query Same thing, different compound: CC(C)(N)C(=O)N1CCn2c(nc(-c3ccc(F)cc3)c2Nc2ccc(Cl)c(F)c2)C1
// result 94

// query Same thing, different compound: NCC(=O)N1CCn2c(nc(-c3ccc(F)cc3)c2Nc2ccc(Cl)cc2)C1
// result 52
